Experiment: Partition Coefficient (log P)
Assay type: physicochemical
PROPERTY_LABEL: logP

Recorded results for 4 compounds are shown here.
>>> value_reported("CCCN1C(=O)c2c3nc(cc4[nH]c(cc5nc(cc6[nH]c2c(c6C)C1=O)C(CC)=C5C)c(C(C)OC)c4C)[C@@H](C)[C@@H]3CCC(=O)OC (some centres unmarked)")
6.22
>>> value_reported("CCCOC(C)c1c(C)c2cc3nc(c4c5[nH]c(cc6nc(cc1[nH]2)C(C)=C6CC)c(C)c5C(=O)N(CCC)C4=O)[C@@H](CCC(=O)OC)[C@@H]3C (some centres unmarked)")
7.22
>>> value_reported("CCCCCCN1C(=O)c2c3nc(cc4[nH]c(cc5nc(cc6[nH]c2c(c6C)C1=O)C(CC)=C5C)c(C(C)OCCC)c4C)[C@@H](C)[C@@H]3CCC(=O)OC (some centres unmarked)")
8.72
>>> value_reported("CCCCCCOC(C)c1c(C)c2cc3nc(c4c5[nH]c(cc6nc(cc1[nH]2)C(C)=C6CC)c(C)c5C(=O)N(CCC)C4=O)[C@@H](CCC(=O)OC)[C@@H]3C (some centres unmarked)")
8.72

Here is another compound to look at.
Return reported logP; argument: CCCCCCN1C(=O)c2c3nc(cc4[nH]c(cc5nc(cc6[nH]c2c(c6C)C1=O)C(CC)=C5C)c(C(C)OC)c4C)[C@@H](C)[C@@H]3CCC(=O)OC (some centres unmarked) 7.72

Data credit: patent US6103751A
